Where these numbers come from: the supplement of paper PMC8728848

- EXPERIMENTAL TARGET: Neu5Ac(a2-6)Gal(b1-4)GlcNAc(b1-3)Gal(b1-3)GlcNAc
- ASSAY SUMMARY: glycan array binding signal (z-score within array); higher = stronger binding
- CONDITION CONTEXT: glycan notation: IUPAC condensed, linker removed
This is one part of a sample in which the strongest signals are shown more often than they occur.
Below, each entry is listed with its recorded glycan array binding signal (z-score).
Answer with the value's number alone.

BINDER | OBSERVED RESULT
GNAT (Pseudomonas aeruginosa), Q9HV14 (protein) MQLSHRPAETGDLETVAGFPQDRDELFYCYPKAIWPFSVAQLAAAIAERRGSTVAVHDGQVLGFANFYQWQHGDFCALGNMMVAPAARGLGVARYLIGVMENLAREQYKARLMKISCFNANAAGLLLYTQLGYQPRAIAERHDPDGRRVALIQMDKPLEP | -0.3
SfaEH (Escherichia coli), Q1RDG5 (protein) LLCRNNQTGQVFNSGDTSFRVNVSPVVQYDKSISVLDLSQLVSCQNEDSTGQNYDYLKILKGSGFSPALDTKTYGRLDFTSRPTGYARQLPLQFDLQVTEAFYQYGVWKPFPAKLYLYPAPGVFGKVINNGDLLATLYVNKFSTKGQEAGERNFTWRFYATNDVYIQTGTCRVSSNNVKVDLPSYPGGPVTVPLTVRCDQTQSVSYTLSGPVTGSGNTVFANTAASGSGGVGIQLSDNVGPVPAGQPRSLGQVGSSPVSLGLKASYALTGQASPTPGAVQSVINVTFSYN | -0.233
HA-00510 (Pseudomonas aeruginosa), Q02V39_PSEAB (protein) GVPIVNIATPNGAGLSNNHFRDYNVGANGLILNNATGKTQGTQLGGIILGNPNLKGQAAQVILNQVTGGNRSTLAGYTEVAGQSARVIVANPHGITCQGCGFINTPRATLTTGKPIMDGQRLERFQVDGGDIVVEGAELNVGNLEQFDLITRSAKLNAKLYAKNLNIVTGRNDVQADSLQATPRAADGSEKPQLAIDSSALGGMYAGAIRLVGTEQGVGVKLAGDMAASGGDIRIDASGKLSLAQASSQGDLKIAAQAVELNGKTYAGGSAEIRSAEELVNRQS | 2.34
StdA (Salmonella typhimurium), Q8Z3Z0 (protein) MAAAGMMYGASVFAADTTPTAGPFGSGKILFTGTITNSPCDIAPGDDAITVPFGQISYRKLNTANATTDSKPFTIHLQNCAFDPNETTIAGSAGKMSKVTVSFSGTADTSGKAYVSTGSAQHVGVQLLKGDNTSLITPNTPMPDGDAQQLQAGNNELNFFARLIALTDAATPGDVNASVTYTLKYL | -0.819

We now examine a further binder.
Endpoint output: glycan array binding signal (z-score) of PfulAvr4 2 (Pseudocercospora fuligena) (protein) HHHHHHDYKDDDDKAKPIKPFACPPKDFTTTKCQGPVDCLYANPLSCLGYIQCVCDDDACSTATPYAKSCPTGLAWVEKLKRCDGIKKSACPKKMYEGS . Value? -0.344
